Target: T1, rabbit albumin (rabbit, UniProt P49065 25-608)
T1 chain: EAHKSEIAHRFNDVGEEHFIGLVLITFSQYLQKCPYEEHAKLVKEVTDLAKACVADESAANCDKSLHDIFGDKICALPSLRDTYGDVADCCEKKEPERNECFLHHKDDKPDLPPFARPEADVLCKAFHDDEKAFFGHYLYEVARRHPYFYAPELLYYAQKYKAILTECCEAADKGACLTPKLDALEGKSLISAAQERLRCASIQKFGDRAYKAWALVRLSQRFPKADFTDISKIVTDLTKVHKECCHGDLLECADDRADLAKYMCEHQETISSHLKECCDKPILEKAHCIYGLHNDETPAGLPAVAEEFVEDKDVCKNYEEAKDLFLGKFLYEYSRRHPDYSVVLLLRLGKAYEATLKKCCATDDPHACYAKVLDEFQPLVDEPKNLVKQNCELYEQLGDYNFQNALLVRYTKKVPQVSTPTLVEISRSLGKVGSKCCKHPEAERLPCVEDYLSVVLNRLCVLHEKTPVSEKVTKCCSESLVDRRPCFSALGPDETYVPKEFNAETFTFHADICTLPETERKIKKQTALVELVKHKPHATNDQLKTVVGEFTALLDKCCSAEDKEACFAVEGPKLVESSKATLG
Assay: competition ELISA (SA08b binding to rabbit albumin)
Bridges are numbered along the chain shown (N, C = ends).
Measurement Kind: IC50 (nM)
Enter your answer as a number in nM; do not include the unit.

*Q* Look up IC50: Ac-QGLIGDICLPRWGCLWGDSVK-NH2 (disulfide 8-14 (inferred)) [SA08]
*A* 33
